System: SF-295 CNS
procedureText: NCI tumour cell line growth inhibition, 48 h
Binary call on TGI: t from 4 µM upward, f beneath that.

A selection of reference data follows.
> print(dat)
                                   compound  testsystem  cat
1  CC(=O)Oc1ccc2cc(-c3ccc(OC(C)=O)c(OC(C)=O)c3)c(=O)oc2c1  SF-295 CNS    t
2  COc1ccc2c(c1)[n+]([O-])c(/C(C)=N/NC(=O)c1ccccc1O)c(C)[n+]2[O-]  SF-295 CNS    t
3  CC(=O)N[C@@H](Cc1ccc(OP(=O)(O)O)cc1)C(=O)N[C@H]1CCC(=O)N2CCC[C@@H](C(=O)NCc3ccccc3)N2C1=O  SF-295 CNS    t
4  COc1cc(/C=C2\N=C(c3ccccc3)N(c3nc4ccc(Sc5ccccc5)cc4[nH]3)C2=O)cc(OC)c1OC  SF-295 CNS    t

Answer whether TGI of "CCOc1cccc(-c2cc(=O)c3cc4c(cc3[nH]2)OCO4)c1" is greater than or equal to 4 µM.
f

Answer whether TGI of "CC(C)C(=O)c1c(C(F)(F)F)n([O-])c2ccccc2[n+]1=O" is greater than or equal to 4 µM.
f

Answer whether TGI of "CN(C)c1ccccc1[CH2][Ga]([Cl])[CH2]c1ccccc1N(C)C" is greater than or equal to 4 µM.
f

Answer whether TGI of "Cc1[nH]nc2ncc(C(=O)N3CCC[C@H]3c3ccc(Cl)cc3)cc12" is greater than or equal to 4 µM.
t

Answer whether TGI of C=C1C(=O)C2=CC1CCC(=O)C1(C)CCC(OC(C)=O)C(C)(C)C1CC2O (configuration not stated) is greater than or equal to 4 µM.
t

Answer whether TGI of "Cc1ccc(C(=O)NCCN(C)C)c2nc3ccccc3cc12" is greater than or equal to 4 µM.
f

Answer whether TGI of "CN(/N=C\c1ccnc2ccccc12)c1ccccc1" is greater than or equal to 4 µM.
t

Answer whether TGI of "CCCCCCCCCCCCCCCCN(CC)CC" is greater than or equal to 4 µM.
f

====

Test system: NCI-H522 lung
procedureText: NCI tumour cell line growth inhibition, 48 h; in the data active means GI50 below about 0.43 µM; inactive means the rest
// one of label 1 (active), label 0 (inactive), no free text

> print(dat)
                             chemicalstring      cat
1  COc1cc2c(c(OC)c1OC)-c1c(c3ccc([N+](=O)[O-])cc3c(=O)n1CCCN)C2=O  label 0
2                   CCCCCCCCCCCCCCCCN(CC)CC  label 0
3  C=CC(=O)Nc1cccc(Oc2nc(Nc3ccc(N4CCN(C)CC4)cc3OC)ncc2Cl)c1  label 1

Test call, this molecule: "NCCSC(c1ccccc1)(c1ccccc1)c1ccccc1"
label 1

====

Test system: PC-3 prostate
procedureText: NCI tumour cell line growth inhibition, 48 h
Listed here: items and their measured TGI.

> print(dat)
                                   molecule   result
1  CCCc1cn2c(/C=N/N=C(N)N)c(-c3ccc(Cl)c([N+](=O)[O-])c3)nc2s1  3.53 µM

Supply recorded TGI for "COC(=O)c1oc2c(C(=O)/C=C/c3ccc(OC)cc3)c(OCCN3CCOCC3)ccc2c1C" here.
6.88 µM

Supply recorded TGI for "COc1cc(/C=C2\N=C(c3ccccc3)N(c3nc4ccc(Sc5ccccc5)cc4[nH]3)C2=O)cc(OC)c1OC" here.
> 100 µM

Supply recorded TGI for "COC(=O)c1ccc2c(c1)sc1nc(-c3ccc(OC)cc3)cn12" here.
> 100 µM

Supply recorded TGI for O=C1CS(=O)(=O)C(c2cccc(Oc3ccccc3)c2)N1C1CC1 (stereo not given) here.
66.2 µM

Supply recorded TGI for "CN(C)CCOc1ccccc1NC1=C(Cl)C(=O)C(Nc2ccccc2OCCN(C)C)=C(Cl)C1=O" here.
> 31.8 µM

Supply recorded TGI for "C=C1C(=O)O[C@H]2[C@H]1CC/C(CNC(=O)/C=C/c1ccccc1F)=C\CC[C@@]1(C)O[C@@H]21" here.
4.29 µM

====

Test system: SF-268 CNS
procedureText: NCI tumour cell line growth inhibition, 48 h
Residues, ends and D or L forms follow the SMILES beside them. *: point of attachment. Cbz = O=C(OCc1ccccc1)*
quantityKind: TGI

Past entries and their recorded results:
compound	result
Cc1cccc(Cl)c1NC(=O)c1cnc(Nc2cc(N3CCOCC3)cc(S(C)(=O)=O)c2)s1	> 10 µM
CC(C)C[C@@H](C=O)NC(=O)[C@H](CC(C)C)NC(=O)[C@H](CC(C)C)NC(=O)OCc1ccccc1 (Cbz-Leu-Leu-Leu-aldehyde)	1.45 µM
COc1cc(CNc2cnc3ccc(N)cc3n2)cc(OC)c1OC	> 100 µM
O=CN1CCC23CC(O)CCC2C1Cc1cc(Oc2nnnn2-c2ccccc2)cc(O)c13 (stereo not given)	> 100 µM
O=C(O)c1ccc([C@@H]2C(=O)N(O)[C@@H]3C=CC[C@@H]32)cc1	> 100 µM
CC(C)c1ccc(/C=C/c2cc(C(=O)NNC(=O)NC3CCCCC3)nc(=S)[nH]2)cc1	> 100 µM

Supply recorded TGI for "C=CC(=O)Nc1cccc(Oc2nc(Nc3ccc(N4CCN(C)CC4)cc3OC)ncc2Cl)c1" here.
9.24 µM

Supply recorded TGI for COc1cc(C2c3cc4c(cc3OC(NCCO)C2C)OCO4)cc(OC)c1O (stereo not given) here.
> 100 µM

Supply recorded TGI for CN1C(=O)C2(c3ccccc31)C1CC3C(CO1)C1C2C3(CO)CN1C#N (stereo not given) here.
> 100 µM

Supply recorded TGI for "C/C=C(\C)C(=O)O[C@H]1C=CC(=O)O[C@H]1COC(=O)[C@H](C)O" here.
17.6 µM

====

Listed here: items and their measured TGI.
System: MOLT-4 leukemia
procedureText: NCI tumour cell line growth inhibition, 48 h

Past entries and their recorded results:
> print(dat)
                                    compound  quantitykind    result
 1    Cc1cc2c(cc1Cl)SC(NNC1=NCCN1)=NS2(=O)=O           TGI   > 10 µM
 2  CCCCCCCCCCOCCOCCOCCOCCCCC(O)CCCCCCCC1=C[C@H](C)OC1=O (stereo partly specified)           TGI   20.8 µM
 3  O=C(CSSCC(=O)OCCS(=O)(=O)Nc1ccc(Br)cc1)OCCS(=O)(=O)Nc1ccc(Br)cc1           TGI   15.4 µM
 4         NCCSC(c1ccccc1)(c1ccccc1)c1ccccc1           TGI    7.1 µM
 5  Cc1c2c(nn1-c1ccc(S(=O)(=O)NC(=S)NC(=O)c3ccccc3)cc1)-c1ccccc1CC2           TGI  > 100 µM
 6  CN1CC2=C(NC(=S)NC2c2ccccc2Cl)/C(=C/c2ccccc2Cl)C1 (stereo unspecified)           TGI   75.5 µM
 7         CN1CCN(Cc2nc3c(s2)CCc2sccc2-3)CC1           TGI  > 100 µM
 8  COc1ccc2c(c1)C(c1cc(OC)c3c(c1)OCO3)C1=C(COC1=O)N2 (stereo unspecified)           TGI  > 100 µM
 9  CCCc1cn2c(/C=N/N=C(N)N)c(-c3ccc(Cl)c([N+](=O)[O-])c3)nc2s1           TGI  0.546 µM
10  O=C1CC(N2C(=O)/C(=C/C(Cl)=C\c3ccc([N+](=O)[O-])cc3)SC2=S)C(=O)N1c1ccc(O)cc1 (stereo unspecified)           TGI   15.3 µM

Supply recorded TGI for "COc1ccc(-c2nc3c(C(=O)NCCN(C)C)cccc3c3ccccc23)cc1" here.
6.55 µM

Supply recorded TGI for Cc1ccccc1C(C(=O)NC1CCCCC1)N(C(=O)CNc1ccc(C#N)cc1)c1cccc(F)c1 (stereo unspecified) here.
> 100 µM

Supply recorded TGI for "COC(=O)c1ccc2c(c1)sc1nc(-c3ccc(OC)cc3)cn12" here.
> 100 µM

====

System: HS 578T breast
procedureText: NCI tumour cell line growth inhibition, 48 h
quantityKind: TGI (µM)
Quick note: give the figure in µM, leave out the unit.

> print(dat)
                             chemicalstring  unitstring  readoutnumber
1              Nc1cc(Cl)ccc1SSc1ccc(Cl)cc1N          µM           46.7
2        O=[N+]([O-])c1oc2ccc3ccccc3c2c1CCO          µM           27.7
3  C/C=C(\C)C(=O)O[C@H]1C=CC(=O)O[C@H]1COC(=O)[C@H](C)O          µM             26

Supply recorded TGI for "C=CC(=O)Nc1cccc(Oc2nc(Nc3ccc(N4CCN(C)CC4)cc3OC)ncc2Cl)c1" here.
5.39

Supply recorded TGI for "Cc1cc(=O)n2c3c(c4c(cc13)c(CN(C)C)cc(=O)n4C)OC2" here.
41.1

Supply recorded TGI for "NC(=O)c1cc(Br)ccc1NC(=O)/C=C/c1ccccc1" here.
6.27

Supply recorded TGI for "CC(C)(C)c1cc(-c2nc3ccc(N4CCN(CCO)CC4)cc3[nH]2)cc(C(C)(C)C)c1O" here.
4.68

Data origin: PubChem BioAssay (NCI)
